Biological target: Tyrosine-protein kinase BTK (Homo sapiens)
Sequence (Q06187 whole entry): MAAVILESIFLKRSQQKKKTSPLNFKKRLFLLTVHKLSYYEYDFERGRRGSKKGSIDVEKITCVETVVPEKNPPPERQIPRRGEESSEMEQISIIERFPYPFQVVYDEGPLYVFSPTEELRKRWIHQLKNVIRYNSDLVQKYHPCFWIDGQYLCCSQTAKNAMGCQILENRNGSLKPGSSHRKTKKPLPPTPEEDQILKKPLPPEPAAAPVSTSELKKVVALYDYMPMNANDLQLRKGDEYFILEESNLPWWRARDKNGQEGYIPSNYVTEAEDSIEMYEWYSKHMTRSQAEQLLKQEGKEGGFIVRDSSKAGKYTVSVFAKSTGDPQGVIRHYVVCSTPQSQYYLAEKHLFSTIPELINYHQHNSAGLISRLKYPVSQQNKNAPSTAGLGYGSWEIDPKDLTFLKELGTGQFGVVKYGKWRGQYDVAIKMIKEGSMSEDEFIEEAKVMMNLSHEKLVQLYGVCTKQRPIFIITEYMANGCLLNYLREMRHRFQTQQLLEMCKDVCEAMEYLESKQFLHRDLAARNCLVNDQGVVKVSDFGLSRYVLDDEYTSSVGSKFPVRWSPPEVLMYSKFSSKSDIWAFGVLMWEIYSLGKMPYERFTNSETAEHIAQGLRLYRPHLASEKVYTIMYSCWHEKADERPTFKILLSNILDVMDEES
Experiment: Inhibition of BTK (unknown origin) at 0.1 uM in the presence of ATP by caliper mobility shift assay relative to control
assay metric: inhibition (%)
Give bare numbers, in %.

>  <compound smiles>
CC(C)(C)c1ccc(C(=O)Nc2cccc(-c3cn([C@H]4CCN(C[C@@H]5CO5)C4)c4ncnc(N)c34)c2)cc1

>  <units of measure>
%

>  <inhibition>
2.29

$$$$
>  <compound smiles>
COCCN1CC[C@H](n2cc(-c3ccc4c(c3)OCO4)c3c(N)ncnc32)C1

>  <units of measure>
%

>  <inhibition>
14.3

$$$$
>  <compound smiles>
Nc1ncnc2c1c(-c1ccc3c(c1)OCO3)cn2[C@H]1CCN(S(=O)(=O)C2CC2)C1

>  <units of measure>
%

>  <inhibition>
1.64

$$$$
>  <compound smiles>
CN(C)CC(=O)N1CC[C@H](n2cc(-c3ccc4c(c3)OCO4)c3c(N)ncnc32)C1

>  <units of measure>
%

>  <inhibition>
-0.41

$$$$
>  <compound smiles>
Nc1ncnc2c1c(-c1ccc3c(c1)OCO3)cn2[C@H]1CCN(C(=O)C2CC2)C1

>  <units of measure>
%

>  <inhibition>
-3.67

$$$$

I have 3 compounds here; please give me inhibition for each one.
1. Nc1ncnc2c1c(-c1ccc3c(c1)OCO3)cn2[C@H]1CCN(Cc2cc(F)cc(F)c2)C1
2. Nc1ncnc2c1c(-c1ccc3c(c1)OCO3)cn2C[C@@H]1CCCN1C[C@@H]1CO1
3. COC(CN1CC[C@H](n2cc(-c3ccc4c(c3)OCO4)c3c(N)ncnc32)C1)OC

Reply:
[6.07, 13.5, 4.71]
